# System Name: equine FcRn (large alpha subunit p51) / equine beta-2-microglobulin complex, biotinylated (equine) (UniProt P30441)
# Experiment Description: SPR (Biacore), pH 6
Property Name: pKd
Expect pKd as a plain number equal to -log10 of the molar concentration.

Request: Quick one: pKd for equine IgG1 M252Y (antibody, part only; not given: variable domains, not shown: another chain or arm of the molecule) constant: ASTTAPKVFALAPGCGTTSDSTVALGCLVSGYFPEPVKVSWNSGSLTSGVHTFPSVLQSSGFYSLSSMVTVPASTWTSETYICNVVHAASNFKVDKRIEPIPDNHQKVCDMSKCPKCPAPELLGGPSVFIFPPNPKDTLYITRTPEVTCVVVDVSQENPDVKFNWYMDGVEVRTATTRPKEEQFNSTYRVVSVLRIQHQDWLSGKEFKCKVNNQALPQPIERTITKTKGRSQEPQVYVLAPHPDELSKSKVSVTCLVKDFYPPEINIEWQSNGQPELETKYSTTQAQQDSDGSYFLYSKLSVDRNRWQQGTTFTCGVMHEALHNHYTQKNVSKNPGK ?
Result: 7.71

Request: Look at this binder and give its reported pKd. equine IgG4 D312C (antibody, part only; not given: variable domains, not shown: another chain or arm of the molecule) constant: ASTTAPKVFPLASHSAATSGSTVALGCLVSSYFPEPVTVSWNSGALTSGVHTFPSVLQSSGLYSLSSMVTVPASSLKSQTYICNVAHPASSTKVDKKIVIKECNGGCPAECLQVGPSVFIFPPKPKDVLMISRTPTVTCVVVDVGHDFPDVQFNWYVDGVETHTATTEPKQEQFNSTYRVVSVLPIQHKCWLSGKEFKCKVNNKALPAPVERTISKPTGQPREPQVYVLAPHRDELSKNKVSVTCLVKDFYPTDIDIEWKSNGQPEPETKYSTTPAQLDSDGSYFLYSKLTVETNRWQQGTTFTCAVMHEALHNHYTEKSVSKSPGK
Result: 7.57

Request: Would you kindly share the measured pKd for equine IgG4 D312S (antibody, part only; not given: variable domains, not shown: another chain or arm of the molecule) constant: ASTTAPKVFPLASHSAATSGSTVALGCLVSSYFPEPVTVSWNSGALTSGVHTFPSVLQSSGLYSLSSMVTVPASSLKSQTYICNVAHPASSTKVDKKIVIKECNGGCPAECLQVGPSVFIFPPKPKDVLMISRTPTVTCVVVDVGHDFPDVQFNWYVDGVETHTATTEPKQEQFNSTYRVVSVLPIQHKSWLSGKEFKCKVNNKALPAPVERTISKPTGQPREPQVYVLAPHRDELSKNKVSVTCLVKDFYPTDIDIEWKSNGQPEPETKYSTTPAQLDSDGSYFLYSKLTVETNRWQQGTTFTCAVMHEALHNHYTEKSVSKSPGK ?
Result: 7.76

Request: Could you share which pKd value was measured for equine IgG4 Y436G (antibody, part only; not given: variable domains, not shown: another chain or arm of the molecule) constant: ASTTAPKVFPLASHSAATSGSTVALGCLVSSYFPEPVTVSWNSGALTSGVHTFPSVLQSSGLYSLSSMVTVPASSLKSQTYICNVAHPASSTKVDKKIVIKECNGGCPAECLQVGPSVFIFPPKPKDVLMISRTPTVTCVVVDVGHDFPDVQFNWYVDGVETHTATTEPKQEQFNSTYRVVSVLPIQHKDWLSGKEFKCKVNNKALPAPVERTISKPTGQPREPQVYVLAPHRDELSKNKVSVTCLVKDFYPTDIDIEWKSNGQPEPETKYSTTPAQLDSDGSYFLYSKLTVETNRWQQGTTFTCAVMHEALHNHGTEKSVSKSPGK ?
Result: 7.47
